assay system: RAC-gamma serine/threonine-protein kinase (Homo sapiens) (UniProt Q9Y243)
Sequence (Q9Y243 whole entry): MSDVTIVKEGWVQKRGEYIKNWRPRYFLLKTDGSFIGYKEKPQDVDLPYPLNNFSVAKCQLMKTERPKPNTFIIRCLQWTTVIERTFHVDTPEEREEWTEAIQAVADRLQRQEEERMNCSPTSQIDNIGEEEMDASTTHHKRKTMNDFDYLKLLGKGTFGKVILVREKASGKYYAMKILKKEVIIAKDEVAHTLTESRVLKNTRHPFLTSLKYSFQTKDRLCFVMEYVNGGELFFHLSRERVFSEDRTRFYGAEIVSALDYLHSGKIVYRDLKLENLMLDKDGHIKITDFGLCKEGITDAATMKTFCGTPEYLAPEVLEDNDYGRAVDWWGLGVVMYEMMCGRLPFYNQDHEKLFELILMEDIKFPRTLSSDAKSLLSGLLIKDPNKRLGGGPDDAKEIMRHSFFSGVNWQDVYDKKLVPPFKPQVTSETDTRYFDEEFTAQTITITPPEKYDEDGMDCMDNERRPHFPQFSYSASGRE
condition info: at 1 µM
Description: GSK_PKIS: AKT3 mean inhibition at 1 uM [Nanosyn]
test readout: inhibition (%)
Give the value in % but do not write % after it.

The reported inhibition value, RAC-gamma serine/threonine-protein kinase (Homo sapiens) (UniProt Q9Y243), for "Cc1ccc(-c2cc3c(NC(=O)C4CC4)ncnc3o2)cc1" reads 2.62

The reported inhibition value, RAC-gamma serine/threonine-protein kinase (Homo sapiens) (UniProt Q9Y243), for "Cc1cc(O)cc(C)c1/C=C/c1cncc(C(N)=O)c1" reads 1.18

The reported inhibition value, RAC-gamma serine/threonine-protein kinase (Homo sapiens) (UniProt Q9Y243), for "O=C(Nc1n[nH]c2nnc(-c3cccnc3)cc12)C1CC1" reads 5.03

The reported inhibition value, RAC-gamma serine/threonine-protein kinase (Homo sapiens) (UniProt Q9Y243), for "O=C1Nc2ccccc2/C1=C1\CCc2cc(O)ccc21" reads 1.29

The reported inhibition value, RAC-gamma serine/threonine-protein kinase (Homo sapiens) (UniProt Q9Y243), for "COc1cc(N2CCN(C(C)C)CC2)ccc1Nc1nc(Nc2cccc(F)c2C(=O)O)c2cc[nH]c2n1" reads 2.08

The reported inhibition value, RAC-gamma serine/threonine-protein kinase (Homo sapiens) (UniProt Q9Y243), for "O=C(O[C@H]1CN[C@H](C#Cc2cc3ncnc(Nc4ccc(OCc5cccc(F)c5)c(Cl)c4)c3s2)C1)N1CCOCC1" reads 1.6

The reported inhibition value, RAC-gamma serine/threonine-protein kinase (Homo sapiens) (UniProt Q9Y243), for "COc1ccc(-c2nn3ncccc3c2-c2ccnc(Nc3ccc(F)c(F)c3)n2)cc1" reads 2.01

The reported inhibition value, RAC-gamma serine/threonine-protein kinase (Homo sapiens) (UniProt Q9Y243), for "c1ccc(-c2n[nH]cc2-c2ccnc(-c3ccc(OCCn4ccnc4)cc3)c2)nc1" reads 1.01

The reported inhibition value, RAC-gamma serine/threonine-protein kinase (Homo sapiens) (UniProt Q9Y243), for "FC(F)(F)CNc1nccc(-c2cnn3ncccc23)n1" reads 1.33

The reported inhibition value, RAC-gamma serine/threonine-protein kinase (Homo sapiens) (UniProt Q9Y243), for "COc1cc2c(cc1Nc1nc(Nc3cccc(F)c3C(N)=O)c3cc[nH]c3n1)N(C(=O)CN1CCN(C(C)C)CC1)CC2" reads 3.89

The reported inhibition value, RAC-gamma serine/threonine-protein kinase (Homo sapiens) (UniProt Q9Y243), for "O=C(O[C@H]1CN[C@H](C#Cc2cc3ncnc(Nc4ccc5c(cnn5Cc5ccccc5)c4)c3s2)C1)N1CCOCC1" reads 0.11

The reported inhibition value, RAC-gamma serine/threonine-protein kinase (Homo sapiens) (UniProt Q9Y243), for "CS(=O)(=O)CCNCc1ccoc1-c1ccc2ncnc(Nc3ccc(OCc4ccccc4)cc3)c2c1" reads 2.03

---

assay system: RAC-beta serine/threonine-protein kinase (Homo sapiens)
condition info: at 1 µM
Description: GSK_PKIS: AKT2 mean inhibition at 1 uM [Nanosyn]
test readout: inhibition (%)
Give the value in % but do not write % after it.

Reported inhibition of "OCCCNc1nccc(-c2c(-c3ccc(F)cc3)nn3cc(C(F)(F)F)ccc23)n1" : 0.18

Reported inhibition of "COc1cc(N2CCN(C(C)C)CC2)ccc1Nc1nc(Nc2cccc3ncccc23)c2cc[nH]c2n1" : -0.32

Reported inhibition of "c1ccc(-c2n[nH]cc2-c2ccnc(-c3ccc(OCCn4ccnc4)cc3)c2)nc1" : 0.73

---

assay system: Cyclin-dependent kinase 2 (Homo sapiens) (UniProt P24941)
condition info: at 1 µM
test readout: inhibition (%)
Give the value in % but do not write % after it.

Reported inhibition of "CCn1c(-c2nonc2N)nc2cncc(C(=O)NCCNC)c21" : 5.11

Reported inhibition of "CNC(=O)c1ncccc1Nc1nc(Nc2cc3c(cc2OC)CCCN3C(=O)CN(C)C)nc2[nH]ccc12" : 9.82

Reported inhibition of "COc1ccccc1-c1cc(/C=C2\C(=O)Nc3ncc(Br)cc32)cc(Br)c1O" : 9.34

Reported inhibition of "CCCNc1cccc(-n2ncc3c(N/N=C/c4ccncc4)ncnc32)c1" : 9.16

Reported inhibition of "CCS(=O)(=O)c1ccc(OC)c(Nc2ncc(-c3cccc(C(C)=O)c3)o2)c1" : 8.73

---

Test system: Tyrosine-protein kinase ABL1 (Homo sapiens), P00519 [H396P]
condition info: at 1 µM
test readout: inhibition (%)
Give the value in % but do not write % after it.

Reported inhibition of "O=C(O[C@H]1CN[C@H](C#Cc2cc3ncnc(Nc4ccc5c(cnn5Cc5ccccc5)c4)c3s2)C1)N1CCOCC1" : 1.3

Reported inhibition of "NC(=O)c1ccc2c(-c3ccnc(NCCCO)n3)c(-c3ccc(F)cc3)nn2c1" : 8.34

Reported inhibition of "Cc1ccc(-c2cc3c(NC(=O)C4CC4)ncnc3o2)cc1" : 24.2

Reported inhibition of "Cc1cc(O)cc(C)c1/C=C/c1cncc(C(=O)OC(C)(C)C)c1" : 35

Reported inhibition of "N#Cc1ccc2c(-c3ccnc(NC4CC4)n3)c(-c3ccc(F)cc3)nn2c1" : 3.93

---

assay system: Mitogen-activated protein kinase 11 (Homo sapiens) (UniProt Q15759);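 further: values are mean percent inhibition of p38beta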
Sequence (Q15759 whole entry): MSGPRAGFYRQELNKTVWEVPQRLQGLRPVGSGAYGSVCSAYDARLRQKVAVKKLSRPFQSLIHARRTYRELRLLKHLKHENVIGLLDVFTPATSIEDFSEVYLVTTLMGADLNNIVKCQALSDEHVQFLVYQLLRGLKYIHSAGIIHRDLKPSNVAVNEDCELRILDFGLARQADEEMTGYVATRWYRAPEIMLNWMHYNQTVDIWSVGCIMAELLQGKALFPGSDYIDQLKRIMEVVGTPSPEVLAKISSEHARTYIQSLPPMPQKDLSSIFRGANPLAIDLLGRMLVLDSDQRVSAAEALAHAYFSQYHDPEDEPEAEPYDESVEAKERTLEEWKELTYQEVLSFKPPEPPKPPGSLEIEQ
condition info: at 1 µM
// map inhibition onto a label; ranges LOW: < 3%; MID: ≥ 3% and < 6%; HIGH: ≥ 6%

Data request: Category of CC1=C(C(=O)Nc2ccc3[nH]nc(C)c3c2)C(c2ccc(C(F)(F)F)cc2)CC(=O)N1 (stereo not given) , please.
Data returned: LOW

Data request: Category of "CNC(=O)c1ncccc1Nc1nc(Nc2cc3c(cc2OC)CCCN3C(=O)CN(C)C)nc2[nH]ccc12" , please.
Data returned: MID

Data request: Category of "NS(=O)(=O)c1ccc(N/N=C2\C(=O)Nc3cccc(CCc4ccncc4)c32)cc1" , please.
Data returned: MID

Data request: Category of "Cc1c2ccc(N(C)c3ccnc(Nc4cccc(S(N)(=O)=O)c4)n3)cc2nn1C" , please.
Data returned: HIGH

Data request: Category of "COC(=O)Nc1nc2cc(Oc3ccc(NC(=O)Nc4ccccc4)cc3)ccc2[nH]1" , please.
Data returned: HIGH

Data request: Category of "COc1cccc(Nc2nccc(-c3cnn4ncccc34)n2)c1" , please.
Data returned: HIGH

Data request: Category of "CCOc1ccc2c(-c3ccnc(Nc4cc(OC)cc(C(F)(F)F)c4)n3)cnn2n1" , please.
Data returned: LOW

Data request: Category of "COc1c(C(N)=O)cc(-c2ccc(Cl)cc2)cc1-c1ccc(S(N)(=O)=O)cc1" , please.
Data returned: MID

Data request: Category of "CN(C)CCNC(=O)Nc1ccc(N(C)c2ccnc(Nc3ccc(CS(C)(=O)=O)cc3)n2)cc1" , please.
Data returned: LOW

Data request: Category of "COc1cc(Nc2ncc(-c3ccccc3)o2)cc(OC)c1" , please.
Data returned: MID

Data request: Category of "CS(=O)(=O)Nc1ccc(-c2ccc3c(NC(=O)C4CC4)n[nH]c3c2)cc1" , please.
Data returned: LOW

Data request: Category of "CCS(=O)(=O)c1ccc(OC)c(Nc2ncc(-c3cccc(F)c3)o2)c1" , please.
Data returned: HIGH

Data request: Category of "O=C(O[C@H]1CN[C@H](C#Cc2cc3ncnc(Nc4ccc5c(ccn5Cc5cc(F)ccc5F)c4)c3s2)C1)N1CCOCC1" , please.
Data returned: MID

Data request: Category of "CCS(=O)(=O)c1ccc(OC)c(Nc2ncc(-c3cccc(C(C)=O)c3)o2)c1" , please.
Data returned: MID

Data request: Category of "Cc1ccc(-c2cc3c(NC(=O)C4CC4)ncnc3o2)cc1" , please.
Data returned: HIGH

Data request: Category of "OCCCNc1nccc(-c2c(-c3ccc(F)cc3)nn3cc(C(F)(F)F)ccc23)n1" , please.
Data returned: HIGH

Data request: Category of "CC(C)c1ccc(-c2cc(-c3c[nH]nc3-c3ccccn3)ccn2)cc1" , please.
Data returned: HIGH

Data request: Category of "COc1ccc2ncn(-c3cc(O[C@H](C)c4ccccc4C(F)(F)F)c(C(N)=O)s3)c2c1" , please.
Data returned: LOW

Data request: Category of "CN1CCC(n2cnc(-c3ccc(F)cc3)c2-c2ccnc(NCCO)n2)CC1" , please.
Data returned: HIGH

Data request: Category of "CS(=O)(=O)Nc1ccc(-c2cc(-c3ccccc3)cc(C(N)=O)c2N)cc1" , please.
Data returned: LOW

Data request: Category of "Cc1cc(O)cc(C)c1/C=C/c1cncc(C(N)=O)c1" , please.
Data returned: LOW

Data request: Category of "COc1cccc(-n2ncc3c(N/N=C/c4ccc(C(=O)NCCN(C)C)cc4)ncnc32)c1" , please.
Data returned: MID

---

Give inhibition for every item shown.
assay system: Cyclin-dependent kinase 2 (Homo sapiens)
condition info: at 1 µM
Give the value in % but do not write % after it.

The reported inhibition value, Cyclin-dependent kinase 2 (Homo sapiens), for "COc1cc2c(cc1Nc1nc(Nc3cccc(F)c3C(N)=O)c3cc[nH]c3n1)N(C(=O)CN1CCN(C(C)C)CC1)CC2" reads 1.57

The reported inhibition value, Cyclin-dependent kinase 2 (Homo sapiens), for "COC(=O)Nc1nc2cc(Oc3ccc(NC(=O)Nc4ccccc4)cc3)ccc2[nH]1" reads 0.35

The reported inhibition value, Cyclin-dependent kinase 2 (Homo sapiens), for "c1cnn2ncc(-c3ccnc(NCCCN4CCOCC4)n3)c2c1" reads 5.75

The reported inhibition value, Cyclin-dependent kinase 2 (Homo sapiens), for "CC(C)c1ccc(-c2cc(-c3c[nH]nc3-c3ccccn3)ccn2)cc1" reads -0.02

The reported inhibition value, Cyclin-dependent kinase 2 (Homo sapiens), for "O=C(O[C@H]1CN[C@H](C#Cc2cc3ncnc(Nc4ccc(OCc5cccc(F)c5)c(Cl)c4)c3s2)C1)N1CCOCC1" reads -1.38

The reported inhibition value, Cyclin-dependent kinase 2 (Homo sapiens), for "COc1ccc(-c2nn3ncccc3c2-c2ccnc(Nc3ccc(F)c(F)c3)n2)cc1" reads 3.93

The reported inhibition value, Cyclin-dependent kinase 2 (Homo sapiens), for "CS(=O)(=O)CCNCc1ccoc1-c1ccc2ncnc(Nc3ccc(OCc4ccccc4)cc3)c2c1" reads 3.32

The reported inhibition value, Cyclin-dependent kinase 2 (Homo sapiens), for "CNC(=O)c1sc(-n2cnc3cc(OC)c(OC)cc32)cc1OCc1ccccc1C(F)(F)F" reads 1.77

The reported inhibition value, Cyclin-dependent kinase 2 (Homo sapiens), for "CS(=O)(=O)CCNCc1ccc(-c2ccc3ncnc(Nc4ccc(OCc5cccc(C(F)(F)F)c5)cc4)c3c2)o1" reads 1.87
